The values you see were collected from ChEMBL document CHEMBL4699557.

- System: Vero 76
- testProtocol: Cytotoxicity against monkey Vero 76 cells by microscopic analysis
- Format: cell-based
- testParameters: chlorocebus sabaeus, vero 76
Could you please report measured CC50 for the items listed next?

{"smi": "NC(=O)c1ncn([C@H]2[C@H](O)[C@H](O)[C@]3(CO)C[C@H]23)n1", "CC50": "> 50 µM"}
{"smi": "CC(C)(O)[C@@H](Nc1nc(Cl)nc2c1ccn2[C@H]1[C@H](O)[C@H](O)[C@]2(CO)C[C@H]12)C1CC1", "CC50": "> 100 µM"}
{"smi": "O[C@@H]1[C@H](O)[C@@H]2C[C@@H]2[C@H]1n1cnc2c(NC(C3CC3)C3CC3)nc(I)nc21", "CC50": "> 50 µM"}
{"smi": "CC(C)[C@@H](Nc1nc(Cl)nc2c1ncn2[C@H]1[C@H](O)[C@H](O)[C@]2(CN=[N+]=[N-])C[C@H]12)C1CC1", "CC50": "32 µM"}
{"smi": "O[C@@H]1[C@H](O)[C@@H]2C[C@@H]2[C@H]1n1cnc2c(N[C@@H](CC3CC3)C3CC3)nc(Cl)nc21", "CC50": "> 50 µM"}

Provide the reported CC50 of each entry below, same order.
1. Nc1nc(Cl)nc2c1ncn2[C@H]1[C@H](O)[C@H](O)[C@]2(CO)C[C@H]12
2. O[C@@H]1[C@H](O)[C@@H]2C[C@@H]2[C@H]1n1cnc2c(NCC(C3CC3)C3CC3)nc(Cl)nc21

1: > 50 µM; 2: > 50 µM
